Kd values for the binders below.
experimental system: T1, Human Galectin-3 protein (Acro Biosystems, GA3-H5129) (human, UniProt P17931 2-250)
T1 construct: Bought protein; also called hGal3; Gal3; not shown: linker-spaced 6-histidine tag
T1 sequence (P17931 2-250): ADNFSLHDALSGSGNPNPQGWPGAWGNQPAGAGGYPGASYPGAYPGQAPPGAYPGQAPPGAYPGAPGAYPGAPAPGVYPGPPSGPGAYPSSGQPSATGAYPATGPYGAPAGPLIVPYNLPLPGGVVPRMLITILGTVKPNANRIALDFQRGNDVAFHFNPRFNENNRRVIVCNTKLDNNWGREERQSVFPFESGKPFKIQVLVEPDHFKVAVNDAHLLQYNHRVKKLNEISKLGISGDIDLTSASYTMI
method summary: SPR Biacore T200, antibody captured, Galectin-3 analyte

{"binder": "13A12.2E5 (antibody, V domains shown, murine antibody) VH: QIQLVQSGPELKKPGETVKISCKTSGYKFKTYVMSWVKQAPGKALKWMGWINTYSGVPTYADDFKGRFAFSLETSASTAYLEIINLKNEDTATYFCARDGNYGDPMDYWGQGTSVTVSS VL: DVVMTQTPLTLSVAIGQPASISCKSSQSLLYTNGKTYLNWLLQRPGQSPKRLIYLLSKLDSGVPDRFSASGSGTDFTLKISRVEAEDLGVYYCLQSTHFPLTFGAGTKLEMK", "Kd, nM": 8.2}
{"binder": "846.1F5 (antibody, V domains shown, murine antibody) VH: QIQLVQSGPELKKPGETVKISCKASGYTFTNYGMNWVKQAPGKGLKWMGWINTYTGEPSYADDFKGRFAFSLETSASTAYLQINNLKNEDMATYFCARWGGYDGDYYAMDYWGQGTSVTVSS VL: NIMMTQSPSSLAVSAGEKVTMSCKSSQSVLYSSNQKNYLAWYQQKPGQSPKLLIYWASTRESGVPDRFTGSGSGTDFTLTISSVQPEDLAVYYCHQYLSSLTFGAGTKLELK", "Kd, nM": 2.73}
{"binder": "mIMT001 (IMT001) (antibody, V domains shown, treated here as one molecule; also called mAb IMT001; Gal3 antibody clone IMT001) VH: QIQLVQSGPELKKPGETVKISCKASGYTFTNYGMNWVKQAPGKGLKWMGWINTNTGEPTYVEEFKGRFAFSLETSASTAYLQINNLKNEDTATYFCAPYDNFFAYWGQGTLVTVSA VL: DIVITQDELSNPVTSGESVSISCRSSKSLLYKDGKTYLNWFLQRPGQSPQLLIYLMSTHASGVSDRFSGSGSGTDFTLEISRVKAEDVGVYYCQQLVDYPLTFGAGTKLELK", "Kd, nM": 1.67}
